Answer each item with its documented kon.
Target: T1, human TGF-beta 1 (R&D Systems, Cat # 240-B/CF) (human, UniProt P01137 279-390)
T1 construct: They match K95 and residues 58-61 of mature numbering; also called TGF-β1; mature TGF-β1
T1 sequence (P01137 279-390 limits assumed): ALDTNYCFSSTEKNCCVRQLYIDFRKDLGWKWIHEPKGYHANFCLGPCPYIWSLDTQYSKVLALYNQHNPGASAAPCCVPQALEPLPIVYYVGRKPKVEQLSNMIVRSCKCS
Assay: KinExA 3000, Fab in solution, antigen on beads
Method: A KinExA 3000 instrument (Sapidyne Inst. Inc.) is used to measure binding kinetics. Briefly, an antigen is covalently coupled to alzactone beads and the binding of a free Fab binding composition of the invention to the beads is detected on the instrument. […] After the incubation, free Fab in each equilibrated sample is determined on the KinExA 3000 according to the manufacturer's instructions. Kd values are determined using KinExA 3000 software. […]
Record the value in M⁻¹ s⁻¹, omitting the unit from your answer.

Query string: Please list kon recorded for the binder Fab 23A3 (Fab, V domains shown, Fab with human constant regions (kappa light chain)) VH: QVQLVQSGAEVKKPGASVKVSCKASGYDFTDYNMVWVRQAPGQGLEWMGSIYPYDGETGYNQKFKSRVTMTTDTSTSTAYMELRSLRSDDTAVYYCARGYRAFEYWGQGTLVTVSS VL: DIQMTQSPSSLSASVGDRVTITCRASSSVPYMHWYQQKPGKAPKLLIYATSNPAYGVPSRFSGSGSGTDFTLTISSLQPEDFATYYCQQWDLNPPAFGQGTKLEIK
Result string: 4.8e+06

Query string: Supply kon value. Item: Fab DM7 (Fab, V domains shown, Fab with human constant regions (kappa light chain)) VH: QVQLVQSGAEVKKPGASVKVSCKASGYDFTDYNMHWVRQAPGQGLEWMGYIYPYDGETGYNQKFKSRVTMTTDTSTSTAYMELRSLRSDDTAVYYCARGYRWLYYWGQGTLVTVSS VL: DIQMTQSPSSLSASVGDRVTITCRASSSVSYMHWYQQKPGKAPKPLIYATSNLAKGVPSRFSGSGSGTDFTLTISSLQPEDFATYYCQQWDLNPPAFGQGTKLEIK
Result string: 4.5e+06

Query string: Please report the measured kon for Fab 21D1 (Fab, V domains shown, Fab with human constant regions (kappa light chain) from M13 expression vectors) VH: QVQLVQSGAEVKKPGASVKVSCKASGYTFTDYNIHWVRQAPGQGLEWMGYIYPYDGETGYNQKFKSRVTMTTDTSTSTAYMELRSLRSDDTAVYYCARGYRWFAYWGQGTLVTVSS VL: DIQMTQSPSSLSASVGDRVTITCRASSSVPYMHWFQQKPGKAPKSLIYATSNPAYGVPSRFSGSGSGTDFTLTISSLQPEDFATYYCQQWDLNPPAFGQGTKLEIK
Result string: 4e+06

Query string: Provide measured kon value, entry: Fab DM4 (Fab, V domains shown, Fab with human constant regions (kappa light chain)) VH: QVQLVQSGAEVKKPGASVKVSCKASGYDFTDYNIHWVRQAPGQGLEWMGYIYPYDGETGYNQKFKSRVTMTTDTSTSTAYMELRSLRSDDTAVYYCARGYRWLAYWGQGTLVTVSS VL: DIQMTQSPSSLSASVGDRVTITCRASSSVSYMHWYQQKPGKAPKPLIYATSNLAYGVPSRFSGSGSGTDFTLTISSLQPEDFATYYCQQWDLNPPAFGQGTKLEIK
Result string: 4.2e+06
